I'd appreciate it if you could supply Emax at 30 µM values for the items below.
tested-system: mAChR M4 (Homo sapiens)
Construct: expressed in transfected cells; host or cells: CHO-K1 cells stably transfected with M4 cDNA and chimeric G-protein Gqi5
measurement-protocol: mAChR M4 cell-based functional assay (calcium mobilization, potentiation of EC20 acetylcholine response)
study-conditions: % ACh maximum at 30 μM
Give bare numbers, in %.

Please review the entries below; each comes with its answer.
Cc1nnc2sc(C(=O)NCc3ccc(CN4CCCC4)cc3)c(N)c2c1C    76
Cc1nnc2sc(C(=O)NCc3ccc(S(C)(=O)=O)cc3)c(N)c2c1C    83
Cc1nnc2sc(C(=O)NC3CN(C(=O)c4ccc5c(c4)OCO5)C3)c(N)c2c1C    74
Cc1nnc2sc(C(=O)NC3CNC3)c(N)c2c1C    34

Field: next molecule
Briefly, Emax at 30 µM measured for `Cc1nnc2sc(C(=O)NCCN3CCOCC3)c(N)c2c1C` : 54

* * *

tested-system: mAChR M4 (Homo sapiens, UniProt P08173)
Construct: expressed in transfected cells; host or cells: CHO-K1 cells stably transfected with M4 cDNA and chimeric G-protein Gqi5
Sequence (P08173 whole entry): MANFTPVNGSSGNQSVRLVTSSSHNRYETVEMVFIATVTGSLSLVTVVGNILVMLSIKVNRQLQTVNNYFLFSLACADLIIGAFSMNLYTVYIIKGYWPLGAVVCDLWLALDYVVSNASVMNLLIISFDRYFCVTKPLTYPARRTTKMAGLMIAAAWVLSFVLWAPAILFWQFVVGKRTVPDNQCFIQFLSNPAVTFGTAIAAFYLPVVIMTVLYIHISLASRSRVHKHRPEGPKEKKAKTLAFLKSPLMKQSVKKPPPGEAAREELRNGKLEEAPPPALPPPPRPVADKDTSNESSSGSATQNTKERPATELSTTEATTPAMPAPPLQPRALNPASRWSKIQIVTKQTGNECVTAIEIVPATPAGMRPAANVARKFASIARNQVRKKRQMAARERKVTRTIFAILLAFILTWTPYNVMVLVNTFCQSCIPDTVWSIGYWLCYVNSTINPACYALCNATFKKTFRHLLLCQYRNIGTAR
measurement-protocol: mAChR M4 cell-based functional assay (calcium mobilization, potentiation of EC20 acetylcholine response)
study-conditions: % ACh maximum at 30 μM
I'd appreciate it if you could supply Emax at 30 µM values for the items below.
Numbers only, in %.

Please review the entries below; each comes with its answer.
Cc1nnc2sc(C(=O)NCc3ccc(S(=O)(=O)C(F)F)c(Cl)c3)c(N)c2c1C    73
Cc1nnc2sc(C(=O)NCCNC(=O)OCc3ccccc3)c(N)c2c1C    64
Cc1nnc2sc(C(=O)NCc3ccc(N4CCOCC4)cc3)c(N)c2c1C    67
Cc1nnc2sc(C(=O)NC3CN(S(=O)(=O)c4ccco4)C3)c(N)c2c1C    65
COc1ccc(CNC(=O)c2sc3nnc4c(c3c2N)CCCC4)cc1    54
Cc1cccc(S(=O)(=O)N2CC(NC(=O)c3sc4nnc(C)c(C)c4c3N)C2)c1    65
Cc1nnc2sc(C(=O)N3CC(F)(c4cccc(F)c4)C3)c(N)c2c1C    46
Cc1nnc2sc(C(=O)NCc3ccc(-c4ccncc4)cc3)c(N)c2c1C    75

State recorded Emax at 30 µM for all listed compounds.
1. Cc1nnc2sc(C(=O)N3CC(NS(=O)(=O)c4cccc5ncccc45)C3)c(N)c2c1C
2. Cc1nnc2sc(C(=O)NC3CN(C(=O)Cc4cccs4)C3)c(N)c2c1C
3. Cc1nnc2sc(C(=O)NC3CN(C(=O)OCCN(C)C)C3)c(N)c2c1C
4. [2H]C([2H])(NC(=O)c1sc2nnc(C)c(C)c2c1N)c1ccc(OC)cc1
5. Cc1nnc2sc(C(=O)N3CC4CN(C(=O)C(C)C)CC4C3)c(N)c2c1C (stereo not drawn)

Response:
43
88
74
68
55

State recorded Emax at 30 µM for all listed compounds.
1. Cc1nnc2sc(C(=O)NC3CN(c4nccs4)C3)c(N)c2c1C
2. Cc1nnc2sc(C(=O)NCc3ccc(-n4cncn4)cc3)c(N)c2c1C
3. Cc1nnc2sc(C(=O)NC3CCN(C(=O)c4ccc(F)c(F)c4)C3)c(N)c2c1C (stereo not drawn)
4. Nc1c(C(=O)NC2CC2)sc2nnccc12

Response:
58
67
71
40

Briefly, Emax at 30 µM measured for `COCc1ccc(CNC(=O)c2sc3nnc(C)c(C)c3c2N)cc1` : 53
